# system_tested: T1, human six-transmembrane epithelial antigen of prostate 2 (STEAP2) (human, UniProt Q8NFT2 1-490)
# T1 construct: also called hSTEAP2
# T1 sequence: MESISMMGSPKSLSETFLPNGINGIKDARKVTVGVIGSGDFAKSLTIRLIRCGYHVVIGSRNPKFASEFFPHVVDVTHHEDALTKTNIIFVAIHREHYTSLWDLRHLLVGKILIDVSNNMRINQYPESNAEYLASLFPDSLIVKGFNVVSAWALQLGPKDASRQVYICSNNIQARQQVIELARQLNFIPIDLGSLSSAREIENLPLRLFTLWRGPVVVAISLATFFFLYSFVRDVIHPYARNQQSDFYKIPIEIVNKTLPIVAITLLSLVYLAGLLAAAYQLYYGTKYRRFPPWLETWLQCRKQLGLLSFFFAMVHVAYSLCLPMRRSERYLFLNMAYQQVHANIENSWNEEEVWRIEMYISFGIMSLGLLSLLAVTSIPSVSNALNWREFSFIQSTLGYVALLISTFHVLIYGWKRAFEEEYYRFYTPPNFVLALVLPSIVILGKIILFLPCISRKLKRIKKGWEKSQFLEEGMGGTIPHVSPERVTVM
# procedure_summary: FACS on HEK293 cells (low STEAP2), MFI fold above unstained, average at 100-300 nM antibody
attribute_measured: Avg F.A.B (fold above background)
Numbers only, in fold above background.

[
  {
    "binder": "H1H7814N (antibody, human IgG1, V domains shown) VH: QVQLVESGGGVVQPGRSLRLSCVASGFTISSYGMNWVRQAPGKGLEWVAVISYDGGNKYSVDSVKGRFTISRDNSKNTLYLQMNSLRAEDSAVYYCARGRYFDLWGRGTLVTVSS VL: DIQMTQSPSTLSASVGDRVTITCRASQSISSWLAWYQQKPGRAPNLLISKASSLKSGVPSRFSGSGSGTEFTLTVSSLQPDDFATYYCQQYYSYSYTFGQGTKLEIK",
    "unit_label": "fold above background",
    "recorded_result": 2
  },
  {
    "binder": "H1H7972P (antibody, human IgG1, V domains shown) VH: QVQLQQSGPGLVKPSQTLSLTCAISGDSVSSNSAAWNWIRQSPSRGLEWLGRTYYRSKWYNDYVVSVKSRIIFNPDTSKNQFSLQLNSVTPEDTAVYYCARVRQDYRSGPFDYWGQGTLVTVSS VL: EIVMTQSPVTLSVSPGERATLSCWASQSVSSSLAWYQQKPGQAPRLLIYGASTRATGIPARFSGSGSGTGFTLTISSLQSEDFAVYYCQQYNNWPFTFGPGTKVDIK",
    "unit_label": "fold above background",
    "recorded_result": 4
  },
  {
    "binder": "H1H11164N (antibody, human IgG1, V domains shown) VH: QVQLQQSGPGLVKPSQTLSLTCVISGDSVSTNSAAWNWIRQSPSRGLEWLGRTYYRSKWYNDYAVSVRSRITINPVTSKNQVALHLNSVTPEDTAVYYCARAGIVVVPGPETYYYYYHGLDVWGQGTTVTVSS VL: DIQMTQSPSSLSASVGDRVTITCRASQNIRSYLNWYQQKPGKAPKLLIHVASSLQSGVPSRFSGSGSGTDFTLTISSLQPEDFATYYCQQSYSTPPITFGHGTRLEIK",
    "unit_label": "fold above background",
    "recorded_result": 10
  }
]

Prompt: State the recorded Avg F.A.B (fold above background) for this entry: H1H11880P (antibody, human IgG1, V domains shown) VH: EVQLVESGGGLVQPGGSLRLSCAASGFTFSTYAMHWVRQAPGKGLQHVSTISTNGVNTYYADSVKGRFTISRDNSKSTLYLQMGSLRAEDMAVYYCARDKDFWSGYFDYWGQGTLVTVSS VL: EIVMTQSPGTLSVSPGERATLSCRASQSVSSNLAWYHQKPGQAPRLLIYGASTRATGFPARFSGSGSGTEFTLTISSLQSEDFAAYYCQQYNNWPITFGQGTRLEIK
Completion: 7
